Record form. Attribute: melting point. Fill in for each entry.
Residues, ends and D or L forms follow the SMILES beside them. *: point of attachment. Cbz = O=C(OCc1ccccc1)*; Boc = CC(C)(C)OC(=O)*

Which measured melting point value corresponds to CC(=O)Nc1nc(CCc2ccc(NC(=NC(=O)OC(C)(C)C)NC(=O)OC(C)(C)C)cc2)c(C(=O)O)s1 ?
222 to 223 °C

Could you share which melting point value was measured for O=C(Nc1ccc(Br)cc1)C(=O)N1CCC(Cc2ccccc2)CC1 ?
131 to 132 °C

Returns the measured melting point for the input compound. Input: O=C(O)c1coc2ccc(Br)cc2c1=O
260 to 264 °C

Endpoint output: melting point of O=C(OC1C2OCC(O2)C(OCc2ccccc2)C1OCc1ccccc1)c1ccccc1 (stereo unspecified) . Value?
111 to 113 °C

Need melting point of O=Cc1cn(Cc2ccccc2)nc1OCc1ccccc1 , thanks.
85 to 86 °C

What melting point value was documented for this compound, O=C(O)CNC(=O)c1ccc(-c2ccc3nnn(Cc4ccc5ncccc5c4)c3n2)cc1F ?
252 to 254 °C

Quick one: melting point of O=C1N(Cc2cnc(O)nc2)c2ccccc2C12COc1cc3c(cc12)OCCO3 (stereo unspecified) ?
> 250 °C

Report melting point for CCCCC1c2ccccc2-c2cc(Br)ccc2N1S(=O)(=O)c1ccc(O)cc1 (stereo unspecified) please.
178 to 180 °C

Look up melting point for this compound: COC(=O)c1cc(C)cc(C=O)c1
71 to 73 °C

Value lookup for melting point; key = O=C1c2ccccc2C(=O)N1CC(Cc1c[nH]c([N+](=O)[O-])n1)ON1C(=O)c2ccccc2C1=O (stereo unspecified)
119 to 121 °C

Look up melting point for this compound: C[C@H](NC(=O)Cc1ccccc1)C(=O)O
102 to 104 °C

Which value of melting point has been reported for O=C1Nc2ccccc2C(=NO)C1=O in the records?
241 to 242 °C

melting point for Cc1c2c(nn1CCO)c(N)nc1ccccc12 ?
226 to 228 °C

Requested read-out: melting point. Entry: CSc1cccc(Oc2ncc(F)cc2C(=O)N[C@@H]2CCCC[C@@H]2O)c1 (relative stereo)
99 to 101 °C

Give the measured melting point of O=C1c2cccc([N+](=O)[O-])c2OC12CC2 .
131 to 134 °C

Given CC(C)C(C)(N)C(N)=S (stereo unspecified) , state its recorded melting point.
98 to 100 °C

Endpoint output: melting point of CSc1ccc(C2=NNC(=O)CC2c2ccccc2)cc1 (stereo unspecified) . Value?
213 to 214 °C

What does the record list as melting point for COc1cc(-c2nc(N(C)CCN(C)C)c3c(C)c(C#N)sc3n2)cc(OC)c1OC ?
125 to 127 °C

Form field: reported melting point of COc1cccc2c1C(=O)C(=O)N2
198 to 200 °C

Entry Nc1nc(-c2ccc(Cl)cc2)c(CCC(=O)N2CCS(=O)(=O)CC2)s1 : reported melting point = ?
220 to 222 °C

For the compound shown here, CCCCc1nc(=O)c2ccc(C(=O)OCC)cc2[nH]1 , give the reported melting point.
145 °C

Can you look up the measured melting point of CCOC(=O)c1ncc2[nH]c3cccc(Oc4ncccn4)c3c2c1COC for me?
96 to 98 °C

What does the data say about its melting point? Entry: Clc1ccccc1NC(c1ccccc1)c1ccccc1
98 °C

Using the record for CCOc1cc([C@@H](CS(C)(=O)=O)N2Cc3cccc(NCC(C)C)c3C2=O)ccc1OC , report its melting point.
122 to 124 °C

Could you share which melting point value was measured for CCOC1=CC(=O)CC(c2ccccc2O)C1 (stereo unspecified) ?
194 to 197 °C

Entry under review: CCNc1cccc(NC(=O)COCC)c1C#N . Reported melting point?
84 to 87 °C

# melting point lookup, item CCOC(=O)C(CC(C)C)NC(=O)C(Cc1ccccc1)NC(=O)C(CCCCNC(=O)OCc1ccccc1)NC(=O)OC(C)(C)C (stereo not drawn) (Boc-Lys(Cbz)-Phe-Leu-OEt; configuration not given here)
135 to 136 °C

Please look up its melting point: CC(C)(C)OC(=O)c1ccc(C=NON)cc1
153 to 155 °C

State the recorded melting point for this entry: CC(C#Cc1ccc(C(=O)O)c(O)c1)c1ccc2c(c1)C(C)(C)CCC2(C)C (stereo unspecified)
191 to 192 °C

# lookup: melting point of NC(=O)c1c(C(F)(F)F)oc2cc(O)ccc2c1=O
> 310 °C

Name the reported melting point value associated with the compound COC(=O)C=Cc1ccc(-c2ccccc2C(F)(F)F)c(C(F)(F)F)c1
97 to 98 °C

Data request, read-out melting point, for CN=C(NC#N)Nc1ccc2c(c1)CCC1(C)CC(=O)NN=C21 (stereo unspecified)
269 °C

Entry C=Cc1ccc(OC)cc1C1C(C(=O)OC)=C(C)NC(C)=C1C(=O)OC : reported melting point = ?
141 to 143 °C

If you can, please state the reported melting point value of COc1cccc(/C=C/C(=O)N2CC(CCl)c3c2cc(N)c2ccccc32)c1 (stereo unspecified) .
> 200 °C

# melting point lookup, item COc1ccc(-n2nc(N(C)C)cc2-c2ccc(OCCO)cc2)cc1
120 to 122 °C

Using the record for COc1ccc2c(c1)CCC1C2CCC2(C)C(O)CC(C)(C)C12 (stereo unspecified) , report its melting point.
87 to 91 °C

// lookup melting point for COc1cc(/C=C/c2cc(/C=C/c3ccc4cc[nH]c4c3)n[nH]2)cc(OCc2ccccn2)c1
88 to 93 °C

I'd like to know its melting point. The compound in question is CCC(=O)Nc1c(C#N)cnn1-c1ccc(OC(F)(F)F)cc1Cl
127 °C

Using the record for O=C1CC(c2ccccc2)c2cc(O)ccc2O1 (stereo unspecified) , report its melting point.
138 °C

Which melting point is reported for this compound? Clc1c2c(nc3ccccc13)CCCNC2
127 °C

// melting point lookup, key: CC(C(=O)O)c1ccc(N)c(C(F)(F)F)c1 (stereo unspecified)
73 to 75 °C
